The measured values listed here are drawn from ChEMBL document CHEMBL1122245.

Tested on: unidentified influenza virus
Experiment: Inhibitory effect against influenza virus plaque formation at a concentration of 100 uM
Assay type: functional
Each record here notes measured Reduction.

Illustrative cases are given below, each with its answer.
>>> meas_value("Br.CNC(=N)CCNC(=O)c1cc(NC(=O)c2cc(NC(=O)c3cc(NC=O)cn3C)cn2C)cn1C")
"<50%"
>>> meas_value("Br.Cn1cc(NC=O)cc1C(=O)Nc1cc(C(=O)Nc2c[nH]c(C(=O)NCCC(=N)N)c2)n(C)c1")
"<50%"
>>> meas_value("Br.Cn1cc(NC(=O)c2cc(NC(=O)c3cc(NC=O)cn3C)cn2C)cc1C(=O)NCCC(=N)N")
">50%"

Now, please, on to the next compound.
Item Br.CN(C)C(=N)CCNC(=O)c1cc(NC(=O)c2cc(NC(=O)c3cc(NC=O)cn3C)cn2C)cn1C has what recorded Reduction?
50%

----------
Assay: Percent inhibition against DNA polymerase alpha when activated DNA was used as template at 10 uM concentration
measurement.type: inhibition
Answer format: number, then unit.

As a guide, the following entries are already answered.
>>> meas_value("Br.Cn1cc(NC(=O)c2cc(NC(=O)c3cc(NC(=O)c4cc(NC(=O)c5cc(NC=O)cn5C)cn4C)cn3C)cn2C)cc1C(=O)NCCC(=N)N")
"17%"
>>> meas_value("Br.Cn1cc(NC=O)cc1C(=O)Nc1cc(C(=O)Nc2c[nH]c(C(=O)NCCC(=N)N)c2)n(C)c1")
"27%"
>>> meas_value("Br.CCn1cc(NC(=O)c2cc(NC(=O)c3cc(NC=O)cn3CC)cn2CC)cc1C(=O)NCCC(=N)N")
"29%"
>>> meas_value("Br.Cn1cc(NC(=O)c2cc(NC(=O)c3cc(NC=O)cn3C)cn2C)cc1C(=O)NCCC(=N)N")
"31%"

Data request, read-out inhibition, for Br.CCn1cc(NC(=O)c2cc(NC=O)cn2C)cc1C(=O)Nc1cc(C(=O)NCCC(=N)N)n(C)c1
23%

Quick check: inhibition of Br.CN(C)C(=N)CCNC(=O)c1cc(NC(=O)c2cc(NC(=O)c3cc(NC=O)cn3C)cn2C)cn1C ?
29%

Suppose we examine the compound Br.Cn1cc(NC(=O)c2cc(NC(=O)c3cc(NC=O)cn3C)c[nH]2)cc1C(=O)NCCC(=N)N ; what inhibition value has been reported?
29%

Value lookup for inhibition; key = Br.CCn1cc(NC(=O)c2cc(NC(=O)c3cc(NC=O)cn3C)cn2C)cc1C(=O)NCCC(=N)N
26%

----------
Test: Percent inhibition against DNA polymerase alpha when activated DNA was used as template at 50 uM concentration
Recorded measurements of inhibition, one per entry
Answer in %, number only, no unit symbol.

>>> meas_value("Br.Cn1cc(NC(=O)c2cc(NC(=O)c3cc(NC=O)cn3C)cn2C)cc1C(=O)NCCC(=N)N")
40
>>> meas_value("Br.CCn1cc(NC(=O)c2cc(NC(=O)c3cc(NC=O)cn3CC)cn2CC)cc1C(=O)NCCC(=N)N")
39
>>> meas_value("Br.Cn1cc(NC(=O)c2cc(NC(=O)c3cc(NC(=O)c4cc(NC(=O)c5cc(NC=O)cn5C)cn4C)cn3C)cn2C)cc1C(=O)NCCC(=N)N")
50
>>> meas_value("Br.Cn1cc(NC(=O)c2cc(NC(=O)c3cc(NC=O)c[nH]3)cn2C)cc1C(=O)NCCC(=N)N")
45
>>> meas_value("Br.Cn1cc(NC(=O)c2cc(NC(=O)c3cc(NC=O)cn3C)c[nH]2)cc1C(=O)NCCC(=N)N")
41

Need inhibition of Br.CNC(=N)CCNC(=O)c1cc(NC(=O)c2cc(NC(=O)c3cc(NC=O)cn3C)cn2C)cn1C , thanks.
38

Value lookup for inhibition; key = Br.Cn1cc(NC=O)cc1C(=O)Nc1cc(C(=O)Nc2c[nH]c(C(=O)NCCC(=N)N)c2)n(C)c1
37

Which inhibition is reported for this compound? Br.CCn1cc(NC(=O)c2cc(NC(=O)c3cc(NC=O)cn3C)cn2C)cc1C(=O)NCCC(=N)N
35

----------
Tested on: HSV-1
Assay: Percent inhibition of DNA polymerase activity in HSV-1 cell lines at a concentration of 50 uM
Format: cell-based
Settings: at 50 µM
Recorded inhibition, one value per entry.
Report only the number, with the unit % understood.

Sample answers from the record:
>>> meas_value("Br.CCn1cc(NC(=O)c2cc(NC(=O)c3cc(NC=O)cn3CC)cn2CC)cc1C(=O)NCCC(=N)N")
80
>>> meas_value("Br.Cn1cc(NC(=O)c2cc(NC(=O)c3cc(NC=O)cn3C)cn2C)cc1C(=O)NCCC(=N)N")
83
>>> meas_value("Br.Cn1cc(NC=O)cc1C(=O)Nc1cc(C(=O)Nc2c[nH]c(C(=O)NCCC(=N)N)c2)n(C)c1")
83

Looking for the measured inhibition of Br.CCn1cc(NC=O)cc1C(=O)Nc1cc(C(=O)Nc2cc(C(=O)NCCC(=N)N)n(C)c2)n(C)c1 , can you help?
83

Please report the recorded inhibition for Br.Cn1cc(NC(=O)c2cc(NC(=O)c3cc(NC=O)c[nH]3)cn2C)cc1C(=O)NCCC(=N)N .
89

GET /values?readout=inhibition&item= Br.Cn1cc(NC(=O)c2cc(NC(=O)c3cc(NC(=O)c4cc(NC(=O)c5cc(NC=O)cn5C)cn4C)cn3C)cn2C)cc1C(=O)NCCC(=N)N
91

Value lookup for inhibition; key = Br.CN(C)C(=N)CCNC(=O)c1cc(NC(=O)c2cc(NC(=O)c3cc(NC=O)cn3C)cn2C)cn1C
81

----------
Test system: Nucleic Acid
Test: Percent inhibition against DNA polymerase alpha when (dT)n-(rA)12-18 sequence was used as template at 50 uM concentration
Assay type: nucleic-acid assay
measurement.type: inhibition (%)
Dear colleague, please return just the value in %, with no unit written.

>>> meas_value("Br.Cn1cc(NC(=O)c2cc(NC(=O)c3cc(NC=O)c[nH]3)cn2C)cc1C(=O)NCCC(=N)N")
82
>>> meas_value("Br.Cn1cc(NC(=O)c2cc(NC(=O)c3cc(NC=O)cn3C)c[nH]2)cc1C(=O)NCCC(=N)N")
80
>>> meas_value("Br.CNC(=N)CCNC(=O)c1cc(NC(=O)c2cc(NC(=O)c3cc(NC=O)cn3C)cn2C)cn1C")
76

Can you share its inhibition? I mean this compound: Br.CCn1cc(NC(=O)c2cc(NC(=O)c3cc(NC=O)cn3CC)cn2CC)cc1C(=O)NCCC(=N)N
75

Need inhibition of Br.CN(C)C(=N)CCNC(=O)c1cc(NC(=O)c2cc(NC(=O)c3cc(NC=O)cn3C)cn2C)cn1C , thanks.
80

// lookup inhibition for Br.CCn1cc(NC(=O)c2cc(NC(=O)c3cc(NC=O)cn3C)cn2C)cc1C(=O)NCCC(=N)N
73

Would you kindly share the measured inhibition for Br.Cn1cc(NC(=O)c2cc(NC(=O)c3cc(NC(=O)c4cc(NC(=O)c5cc(NC=O)cn5C)cn4C)cn3C)cn2C)cc1C(=O)NCCC(=N)N ?
56

Record request: inhibition value, item Br.Cn1cc(NC(=O)c2cc(NC(=O)c3cc(NC=O)cn3C)cn2C)cc1C(=O)NCCC(=N)N
82

----------
Test: Percent inhibition against DNA polymerase alpha when activated DNA was used as template at 10 uM concentration
measurement.type: inhibition (%)
Your answer is read as %, so omit the unit and give the number.

Here is how some molecules turned out for inhibition.
>>> meas_value("Br.CNC(=N)CCNC(=O)c1cc(NC(=O)c2cc(NC(=O)c3cc(NC=O)cn3C)cn2C)cn1C")
27
>>> meas_value("Br.Cn1cc(NC(=O)c2cc(NC(=O)c3cc(NC=O)c[nH]3)cn2C)cc1C(=O)NCCC(=N)N")
31

Moving on to another molecule below.
Item Br.CCn1cc(NC=O)cc1C(=O)Nc1cc(C(=O)Nc2cc(C(=O)NCCC(=N)N)n(C)c2)n(C)c1 has what recorded inhibition?
29

----------
Tested on: HSV-1
Assay: Percent inhibition of DNA polymerase activity in HSV-1 cell lines at a concentration of 50 uM
Type: cell-based
Details: at 50 µM
Reported inhibition values for a set of compounds
Hi! Could you send only the number? It should be in %, unit omitted.

>>> meas_value("Br.CNC(=N)CCNC(=O)c1cc(NC(=O)c2cc(NC(=O)c3cc(NC=O)cn3C)cn2C)cn1C")
76
>>> meas_value("Br.Cn1cc(NC(=O)c2cc(NC(=O)c3cc(NC=O)cn3C)c[nH]2)cc1C(=O)NCCC(=N)N")
88
>>> meas_value("Br.CCn1cc(NC(=O)c2cc(NC=O)cn2C)cc1C(=O)Nc1cc(C(=O)NCCC(=N)N)n(C)c1")
83

Now for the compound whose inhibition we want.
Write down the reported inhibition of Br.CCn1cc(NC(=O)c2cc(NC(=O)c3cc(NC=O)cn3C)cn2C)cc1C(=O)NCCC(=N)N , test system: HSV-1.
83
